meta.source: PubChem BioAssay AID2060626

test system: 168753-222-R-J1-PDC complex spheroid viability; experiment: Anticancer human tumor 168753-222-R-J1-PDC patient-derived bladder carcinoma cell line growth inhibition [CLK]; conditions: second compound 1 µM; first compound 0.1 µM; stronger effect = lower value;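 further: luminescence signal used as surrogate for viable cell amount; viability measured after seven days of drug exposure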
Assign labels as follows, please: condition met for viability, T/C below 0.7%; condition not met for viability, T/C equal to or exceeding 0.7%.

Please review the entries below; each comes with its answer.
molecule	label-class
C=CC(=O)N1CCN(c2nc(=O)n(-c3c(C)ccnc3C(C)C)c3nc(-c4c(O)cccc4F)c(F)cc23)C(C)C1 (stereo not given) + CN1CCN(c2cc(C(=O)Nc3cc4cc(-c5cnn(C)c5)ccc4cn3)ccn2)CC1	condition met
CC1COCCN1c1cc(C2(S(C)(=N)=O)CC2)nc(-c2ccnc3[nH]ccc23)n1 (stereo not given) + CNC(=O)c1ccc(Nc2nc(OC3CCCC3)c3c(-c4ccc5nc(C)oc5c4)c[nH]c3n2)c(OC)c1	condition not met
CC(=O)O[C@H]1C(=O)[C@@]2(C)[C@H]([C@H](OC(=O)c3ccccc3)[C@]3(O)C[C@H](OC(=O)[C@H](O)[C@@H](NC(=O)c4ccccc4)c4ccccc4)C(C)=C1C3(C)C)[C@]1(OC(C)=O)CO[C@@H]1C[C@@H]2O + CN1CCN(c2cc(C(=O)Nc3cc4cc(-c5cnn(C)c5)ccc4cn3)ccn2)CC1	condition met

Prompt: Strictly below 0.7%: is that where viability, T/C of CC1COCCN1c1cc(C2(S(C)(=N)=O)CC2)nc(-c2ccnc3[nH]ccc23)n1 (stereo not given) + CN1CCN(c2cc(C(=O)Nc3cc4cc(-c5cnn(C)c5)ccc4cn3)ccn2)CC1 sits?
Response: condition met

Prompt: Problem: For the molecule C#Cc1c(F)ccc2cc(O)cc(-c3ncc4c(N5CC6CCC(C5)N6)nc(OCC56CCCN5CC(F)C6)nc4c3F)c12 (stereo not given) + CN1CCN(c2cc(C(=O)Nc3cc4cc(-c5cnn(C)c5)ccc4cn3)ccn2)CC1 , is viability, T/C under 0.7%?
Response: condition met

Prompt: Is 0.7% strictly greater than the molecule's reported viability, T/C? molecule: Nc1ccccc1NC(=O)c1ccc(CNC(=O)OCc2cccnc2)cc1 + CNC(=O)c1ccc(Nc2nc(OC3CCCC3)c3c(-c4ccc5nc(C)oc5c4)c[nH]c3n2)c(OC)c1
Response: condition not met

Prompt: Please state whether viability, T/C is below 0.7% for C#Cc1c(F)ccc2cc(O)cc(-c3ncc4c(N5CC6CCC(C5)N6)nc(OCC56CCCN5CC(F)C6)nc4c3F)c12 (stereo not given) + CNC(=O)c1ccc(Nc2nc(OC3CCCC3)c3c(-c4ccc5nc(C)oc5c4)c[nH]c3n2)c(OC)c1
Response: condition not met

Prompt: Is viability, T/C of COc1cccc2c1C(=O)c1c(O)c3c(c(O)c1C2=O)CC(O)(C(=O)CO)CC3OC1CC(N)C(O)C(C)O1 (stereo not given) + CN1CCN(c2cc(C(=O)Nc3cc4cc(-c5cnn(C)c5)ccc4cn3)ccn2)CC1 strictly below 0.7%?
Response: condition met

Prompt: A record lists Nc1ccn(C2OC(CO)C(O)C2(F)F)c(=O)n1 (stereo not given) + CN1CCN(c2cc(C(=O)Nc3cc4cc(-c5cnn(C)c5)ccc4cn3)ccn2)CC1 . Is its viability, T/C below 0.7%?
Response: condition met

Prompt: Does the reported viability, T/C of CCc1c2c(nc3ccc(O)cc13)-c1cc3c(c(=O)n1C2)COC(=O)[C@]3(O)CC + CN1CCN(c2cc(C(=O)Nc3cc4cc(-c5cnn(C)c5)ccc4cn3)ccn2)CC1 stay below 0.7%?
Response: condition met
